target: recombinant hGPC3-His (human) (UniProt P51654); test: Biacore SPR, antibody captured, hGPC3-His analyte, 1:1 model
OUTCOME_MEASURE: koff (s⁻¹)
Give bare numbers, in s⁻¹.

See these solved cases before continuing.
BINDER	koff (s⁻¹)
P1-E6 IgG variant of ARD-103 (antibody, V domains shown) VH: QVQLVESGAEVKKPGASVKVSCKASGYTFTDYEMHWVRQAPGQGLEWMGALDPKTGDTALSQKFKGRVTLTADKSTSTAYMELSSLTSEDTAVYYCTRFYSYTYWGQGTLVTVSS VL: DVVMTQSPLSLPVTPGEPASISCRSSSSLVHSNGNTYLHWYLQKPGQSPQLLIYKVSNRFSGVPDRFSGSGSGTDFTLKISRVEAEDVGVYYCLQNGIVPPTFGQGTKLEIKR	0.000299
P3-F7 IgG variant of ARD-103 (antibody, V domains shown) VH: QVQLVESGAEVKKPGASVKVSCKASGYTFTDYEMHWVRQAPGQGLEWMGALDPKTGDTAYSQKFKGRVTLTADKSTSTAYMELSSLTSEDTAVYYCTRFYSYTYWGQGTLVTVSS VL: DVVMTQSPLSLPVTPGEPASISCRSSQSLVHSNGNTYLQWYLQKPGQSPQLLIYKVSNRFSGVPDRFSGSGSGTDFTLKISRVEAEDVGVYYCVQVTHVPPTFGQGTKLEIKR	0.000724
P6-D11 IgG variant of ARD-103 (antibody, V domains shown) VH: QVQLVQSGAEVKKPGASVKVSCKASGYTFTDYEMHWVRQAPGQGLEWMGALDPKTGDEAYSQKFKGRVTLTADKSTSTAYMELSSLTSEDTAVYYCTRFYSYTYWGQGTLVTVSS VL: DVVMTQSPLSLPVTPGEPASISCRSEQSLVHSNGNTYLHWYLQKPGQSPQLLIYKVSNRFSGVPDRFSGSGSGTDFTLKISRVEAEDVGVYYCVQNGLFPPTFGQGTKLEIKR	0.000324

# next binder below
For reference, reported koff for ARD-103 antibody (IgG) (antibody, V domains shown) VH: QVQLVESGAEVKKPGASVKVSCKASGYTFTDYEMHWVRQAPGQGLEWMGALDPKTGDTAYSQKFKGRVTLTADKSTSTAYMELSSLTSEDTAVYYCTRFYSYTYWGQGTLVTVSS VL: DVVMTQSPLSLPVTPGEPASISCRSSQSLVHSNGNTYLHWYLQKPGQSPQLLIYKVSNRFSGVPDRFSGSGSGTDFTLKISRVEAEDVGVYYCSQNTHVPPTFGQGTKLEIKR stands at 0.000185

Numbers sourced from patent US20250090680A1.
